Items are presented alongside their recorded pIC50.
# Study System: wild type AXL (wtAXL) receptor tyrosine kinase (Homo sapiens, UniProt P30530)
# Construct: WtAXL cDNA was cloned into vector pLXSN(ESK) and transfected into Phoenix E packaging cells; expressed in transfected cells; host or cells: NIH3T3 N7 mouse fibroblasts, retrovirally infected (clone 22)
# Sequence (P30530 26-894): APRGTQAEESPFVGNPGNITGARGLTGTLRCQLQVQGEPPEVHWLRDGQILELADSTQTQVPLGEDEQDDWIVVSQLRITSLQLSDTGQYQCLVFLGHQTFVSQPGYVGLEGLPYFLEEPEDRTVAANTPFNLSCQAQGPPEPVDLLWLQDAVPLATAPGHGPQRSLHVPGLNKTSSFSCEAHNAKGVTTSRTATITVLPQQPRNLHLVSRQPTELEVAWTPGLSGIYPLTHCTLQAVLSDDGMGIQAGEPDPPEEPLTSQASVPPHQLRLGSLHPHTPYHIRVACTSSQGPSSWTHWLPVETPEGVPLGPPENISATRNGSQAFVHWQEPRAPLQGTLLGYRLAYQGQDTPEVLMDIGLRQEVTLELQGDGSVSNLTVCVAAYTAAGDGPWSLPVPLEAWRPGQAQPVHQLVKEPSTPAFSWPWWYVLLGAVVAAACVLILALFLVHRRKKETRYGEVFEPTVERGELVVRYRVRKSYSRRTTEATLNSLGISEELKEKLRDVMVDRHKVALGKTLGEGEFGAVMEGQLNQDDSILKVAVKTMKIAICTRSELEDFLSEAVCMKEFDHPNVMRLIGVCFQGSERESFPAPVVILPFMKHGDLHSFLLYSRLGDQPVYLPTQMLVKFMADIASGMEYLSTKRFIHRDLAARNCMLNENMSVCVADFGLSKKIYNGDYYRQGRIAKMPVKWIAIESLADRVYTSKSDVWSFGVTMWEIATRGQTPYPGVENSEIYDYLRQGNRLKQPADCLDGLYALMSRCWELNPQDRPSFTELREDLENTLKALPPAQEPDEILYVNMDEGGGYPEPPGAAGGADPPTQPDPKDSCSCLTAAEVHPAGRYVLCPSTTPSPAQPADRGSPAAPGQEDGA
# Assay Protocol: NIH-3T3-AXL cellular tyrosine kinase assay (inhibition of AXL phosphorylation)
# Type: cell-based
# Assay Setup: AXL phosphorylation in NIH-3T3-AXL (clone 22) cells, serum-depleted, 2 h with compound, immunoprecipitation / anti-phosphotyrosine blot
Where a name gives a salt, the structure may show the parent alone.
Note on units: pIC50 is unitless, being -log10 of a concentration expressed in mol/L.

Would you please look over these solved cases?
| Molecule | pIC50 |
| --- | --- |
| Cc1cc(Oc2ccc(NS(=O)(=O)c3cc(Cl)cc(Cl)c3O)cc2)c2cc(F)ccc2n1 | 5.15 |
| COc1cc2c(Oc3ccc(NS(=O)(=O)c4cccc(-c5ccccc5)c4)cc3F)ccnc2cc1OCCN1CCOCC1 | 6.49 |
| COc1cc2nccc(Oc3ccc(NS(=O)(=O)c4cccc(-c5ccccc5)c4)c(F)c3)c2cc1OC | 6.37 |
| COc1cc2c(Oc3ccc(NS(=O)(=O)c4ccccc4C#N)cc3F)ccnc2cc1OCCCN1CCC(C)CC1 | 6.68 |
| COc1cc2nccc(Oc3ccc(NS(=O)(=O)c4ccc(Br)c(F)c4)c(F)c3)c2cc1OC | 5.65 |

Qu. Fill in the blank: the reported pIC50 of COc1cc(S(=O)(=O)Nc2ccc(Oc3ccnc4cc(OC)c(OC)cc34)cc2F)ccc1F is ____.
Ans. 6.15

Qu. Fill in the blank: the reported pIC50 of COc1cc2c(Oc3ccc(NS(=O)(=O)c4cccc(-c5ccccc5)c4)cc3F)ccnc2cc1OCCCN [Example D03, hydrochloride] is ____.
Ans. 6.08
